These measurements were taken from BindingDB's records for doi:10.1021/acs.jnatprod.9b01022.

experiment: Reversal of human ABCC1-mediated multidrug resistance in HEK293/MRP1 cells assessed as effect on etoposide-induced cytotoxicity by measuring etoposide IC50 at 1 uM after 72 hrs by CCK8 assay (Rvb = 63.34 +/- 7.92 uM)
VALUE_KIND: IC50 (µM)

[[record]]
structure_smiles = "C=CC(C)(C)c1cc(/C=C/C(=O)c2ccc(O)cc2)c(OC)cc1O"
unit_descriptor = "µM"
reported = 49.3


---

experiment: Reversal of human ABCC1-mediated multidrug resistance in HEK293/MRP1 cells assessed as effect on etoposide-induced cytotoxicity by measuring etoposide IC50 at 0.5 uM after 72 hrs by CCK8 assay (Rvb = 63.34 +/- 7.92 uM)
pIC50: −log10 of the molar value.
VALUE_KIND: pIC50

[[record]]
structure_smiles = "C=CC(C)(C)c1cc(/C=C/C(=O)c2ccc(O)cc2)c(OC)cc1O"
reported = 4.27


---

assay: Reversal of human ABCG2-mediated multidrug resistance in HEK293/R482 cells assessed as effect on mitoxantrone-induced cytotoxicity by measuring mitoxantrone IC50 at 3 uM after 72 hrs by CCK8 assay (Rvb = 50.66 +/- 6.88 nM)
pIC50: −log10 of the molar value.
VALUE_KIND: pIC50

[[record]]
structure_smiles = "C=CC(C)(C)c1cc(/C=C/C(=O)c2ccc(O)cc2)c(OC)cc1O"
value_kind = "pIC50"
reported = 8.21


---

assay: Reversal of human ABCG2-mediated multidrug resistance in HEK293/R482 cells assessed as effect on mitoxantrone-induced cytotoxicity by measuring mitoxantrone IC50 at 2 uM after 72 hrs by CCK8 assay (Rvb = 50.66 +/- 6.88 nM)
pIC50: −log10 of the molar value.
VALUE_KIND: pIC50

[[record]]
structure_smiles = "C=CC(C)(C)c1cc(/C=C/C(=O)c2ccc(O)cc2)c(OC)cc1O"
value_kind = "pIC50"
reported = 8.11


---

test: Reversal of ABCG2 (unknown origin)-mediated multidrug resistance in human H460-MX20 cells assessed as effect on topotecan-induced cytotoxicity by measuring topotecan IC50 at 2 uM after 72 hrs by MTT assay (Rvb = 1319.20 +/- 356.14 nM)
pIC50: −log10 of the molar value.
VALUE_KIND: pIC50

[[record]]
structure_smiles = "C=CC(C)(C)c1cc(/C=C/C(=O)c2ccc(O)cc2)c(OC)cc1O"
value_kind = "pIC50"
reported = 6.83


---

experiment: Reversal of ABCG2 (unknown origin)-mediated multidrug resistance in human H460-MX20 cells assessed as effect on mitoxantrone-induced cytotoxicity by measuring mitoxantrone IC50 at 2 uM after 72 hrs by MTT assay (Rvb = 1160.60 +/- 365.72 nM)
VALUE_KIND: IC50

[[record]]
structure_smiles = "C=CC(C)(C)c1cc(/C=C/C(=O)c2ccc(O)cc2)c(OC)cc1O"
reported = "75 nM"


---

test: Reversal of ABCG2 (unknown origin)-mediated multidrug resistance in human S1-M1-80 cells assessed as effect on mitoxantrone-induced cytotoxicity by measuring mitoxantrone IC50 at 0.5 uM after 72 hrs by MTT assay (Rvb = 73.62 +/- 7.20 uM)
pIC50: −log10 of the molar value.
VALUE_KIND: pIC50

[[record]]
structure_smiles = "C=CC(C)(C)c1cc(/C=C/C(=O)c2ccc(O)cc2)c(OC)cc1O"
reported = 4.40


---

experiment: Reversal of ABCG2 (unknown origin)-mediated multidrug resistance in human S1-M1-80 cells assessed as effect on topotecan-induced cytotoxicity by measuring topotecan IC50 at 0.5 uM after 72 hrs by MTT assay (Rvb = 10.14 +/- 2.820 uM)
VALUE_KIND: IC50 (nM)

[[record]]
structure_smiles = "C=CC(C)(C)c1cc(/C=C/C(=O)c2ccc(O)cc2)c(OC)cc1O"
value_kind = "IC50"
unit_descriptor = "nM"
reported = 1030


---

experiment: Reversal of ABCG2 (unknown origin)-mediated multidrug resistance in human S1-M1-80 cells assessed as effect on topotecan-induced cytotoxicity by measuring topotecan IC50 at 2 uM after 72 hrs by MTT assay (Rvb = 10.14 +/- 2.820 uM)
pIC50: −log10 of the molar value.
VALUE_KIND: pIC50

[[record]]
structure_smiles = "C=CC(C)(C)c1cc(/C=C/C(=O)c2ccc(O)cc2)c(OC)cc1O"
value_kind = "pIC50"
reported = 6.39

